// Ratio lookup, one value per entry
test: Antioxidant activity assessed as trolox equivalent of APPH-induced radical scavenging activity at 0.625 to 2.5 uM by ORAC fluorescence assay
Assay type: functional
Form: value (number only, do not type unit).

Solved cases below.
**Query** Ratio lookup needed for CN1CCN(c2ccc(/C=C/C(=O)/C=C/c3ccc(N4CCN(C)CC4)cc3)cc2)CC1 , thanks.
**Result** 3.2

**Query** Item CN1CCN(c2ccc(/C=C3\CC/C(=C\c4ccc(N5CCN(C)CC5)cc4)C3=O)cc2)CC1 has what recorded Ratio?
**Result** 1.7

**Query** Entry CN1CCN(c2ccc(/C=C/C(=O)CC(=O)/C=C/c3ccc(N4CCN(C)CC4)cc3)cc2)CC1 : reported Ratio = ?
**Result** 1.9

**Query** Data request, read-out Ratio, for CN1CCN(c2ccc(/C=C/c3cccc(/C=C/c4ccc(N5CCN(C)CC5)cc4)n3)cc2)CC1
**Result** 1.1

**Query** Which Ratio is reported for this compound? CN1CCN(c2ccc(/C=C/C(=O)c3ccc(C(=O)/C=C/c4ccc(N5CCN(C)CC5)cc4)cc3)cc2)CC1
**Result** 1.1

Next:
**Query** Given the entry COc1cc(/C=C/C(=O)CC(=O)/C=C/c2ccc(O)c(OC)c2)ccc1O [CURCUMIN] , report its measured Ratio.
**Result** 2.5

**Query** Please give the measured Ratio for this compound: CN1CCN(c2ccc(/C=C/C(=O)c3cccc(C(=O)/C=C/c4ccc(N5CCN(C)CC5)cc4)c3)cc2)CC1
**Result** 1.3

**Query** Requested read-out: Ratio. Entry: CN1CCN(c2ccc(/C=C3\CN(C)C/C(=C\c4ccc(N5CCN(C)CC5)cc4)C3=O)cc2)CC1
**Result** 4.7

**Query** I'd like to know its Ratio. The compound in question is O=C1/C(=C/c2ccc(N3CCCCC3)cc2)CNC/C1=C\c1ccc(N2CCCCC2)cc1
**Result** 2.4

**Query** May I ask what Ratio has been recorded for CN1CCN(c2ccc(/C=C3\CNC/C(=C\c4ccc(N5CCN(C)CC5)cc4)C3=O)cc2)CC1 ?
**Result** 5.8

**Query** For the compound CN1CCN(c2ccc(/C=C3\CCC/C(=C\c4ccc(N5CCN(C)CC5)cc4)C3=O)cc2)CC1 , what Ratio is on record?
**Result** 2.6

**Query** Find the recorded Ratio belonging to CN1CCN(c2ccc(/C=C/c3cccc(/C=C/c4ccc(N5CCN(C)CC5)cc4)c3)cc2)CC1 and report it.
**Result** 1.2
